Entry source: PubChem BioAssay (NCATS)

System: CP192
Assay Explanation: qHTS profiling for inhibitors of Plasmodium falciparum proliferation (AID 504749); note: nearly all actives have a fitted effect of over 60% in size
Details: P. falciparum in erythrocytes, SYBR Green DNA, 72 h; series mostly up to 28.7 µM
Results filed as inconclusive are left out. The source made the active and inactive calls. Calls come from the whole dose curve; as a rule, active = well fitted inhibition curve with a large enough effect; inconclusive = small, poorly fitted or top-dose-only effect; inactive = flat fitted curve, though single readings scatter.
Possible outcomes: yes (active), no (inactive)

Compound	Group Label
Clc1ccc(COC(Cn2ccnc2)c2ccc(Cl)cc2Cl)cc1 (configuration not stated)	yes
CC[N+]1(C)CCCC(OC(=O)C(O)(c2ccccc2)c2ccccc2)C1 (configuration not stated)	no
Cc1ccc(S(=O)(=O)N[C@@H](CCCCN)C(=O)CCl)cc1	no
NCCc1cc(O)c(O)cc1O	no
CCC(COC(=O)c1cc(OC)c(OC)c(OC)c1)(c1ccccc1)N(C)C (configuration not stated)	no
NP(N)(=O)NC(=O)c1ccc(F)cc1	no
c1ccc(C2CC2)c(OCC2=NCCN2)c1	no
Cn1c(CCCC(=O)O)nc2cc(N(CCCl)CCCl)ccc21	no
FC(F)(F)c1cccc(C2=CCN(CCc3ccc4ccccc4c3)CC2)c1	no
CC(C)(C)CC(C)(C)c1ccc(O)cc1	no
CCN(CC)CCOC(=O)C(O)(c1ccccc1)c1ccccc1	no
O=C1NCN(c2ccccc2)C12CCN(CC1COc3ccccc3O1)CC2 (configuration not stated)	no
CC(C)(N)Cc1ccc(Cl)cc1	no
Oc1cc(Cl)ccc1Oc1ccc(Cl)cc1Cl	yes
COc1ccc(C(=O)c2c(C)n(CCN3CCOCC3)c3ccccc23)cc1	no
Clc1cccc(N2CCNCC2)c1	no
NCC1(CC(=O)O)CCCCC1	no
CCOC(=O)C1(c2ccccc2)CCN(CCC(C#N)(c2ccccc2)c2ccccc2)CC1	yes
Cc1cccc(C)c1NC1=NCCCS1	no
C=C1CC[C@@]2(O)[C@H]3Cc4ccc(O)c5c4[C@@]2(CCN3CC2CC2)[C@H]1O5	no
CCCC1CCCCN1 (configuration not stated)	no
OCCOc1ccccc1	no
CC(C)=CC1C(C(=O)OCc2cccc(Oc3ccccc3)c2)C1(C)C (configuration not stated)	no
CCOP(=S)(OCC)Oc1cc(C)nc(C(C)C)n1	no
c1ccc2c(c1)OCC(C1=NCCN1)O2 (configuration not stated)	no
CC1NCCOC1c1ccccc1 (configuration not stated)	no
CN1CCN(C(=O)O[C@H]2c3nccnc3C(=O)N2c2ccc(Cl)cn2)CC1	no

---

Assay Explanation: qHTS of pediatric cancer cell lines to identify multiple opportunities for drug repurposing: Confirmatory screen for BT-12 cells (AID 1347112);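 note: viability read after 48 h of compound exposure; nearly all actives have a fitted effect of over 55% in size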
Details: BT-12 rhabdoid tumor cells, viability; series mostly up to 45.9 µM
Records with an inconclusive call do not appear. Activity calls are given as the source filed them. Calls come from the whole dose curve; as a rule, active = well fitted cell-killing curve with a large enough effect; inconclusive = small, poorly fitted or top-dose-only effect; inactive = flat fitted curve, though single readings scatter.
Possible outcomes: 1 (active), -1 (inactive)

Compound	Group Label
C[C@H]1O[C@@H](O[C@H]2[C@@H](O)C[C@H](O[C@H]3[C@@H](O)C[C@H](O[C@H]4CC[C@@]5(C)[C@H](CC[C@@H]6[C@@H]5CC[C@]5(C)[C@@H](C7=CC(=O)OC7)CC[C@]65O)C4)O[C@@H]3C)O[C@@H]2C)C[C@H](O)[C@@H]1O	1
C=C(C)[C@H]1Cc2c(ccc3c2O[C@@H]2COc4cc(OC)c(OC)cc4[C@@H]2C3=O)O1	1
C[C@@H]1[C@@H](C(=O)C[C@H]2O[C@@H]3O[C@]4(C)CC[C@@H]5[C@H](C)CC[C@@H]([C@H]2C)[C@@]35OO4)O[C@@H]2O[C@]3(C)CC[C@H]4[C@H](C)CC[C@@H]1[C@@]24OO3	1
C[C@@H]1[C@@H](CC(C[C@H]2O[C@@H]3O[C@]4(C)CC[C@@H]5[C@H](C)CC[C@@H]([C@H]2C)[C@@]35OO4)C[S+](=O)([O-])c2ccc(COC(=O)N(C)C)cc2)O[C@@H]2O[C@]3(C)CC[C@H]4[C@H](C)CC[C@@H]1[C@@]24OO3 (some centres not stated)	1
COC[C@@H](NC(C)=O)C(=O)NCc1ccccc1	-1
O=P1(NCCCl)OCCCN1CCCl (configuration not stated)	-1
Cn1cc(C2=C(c3cn(C4CCN(Cc5ccccn5)CC4)c4ccccc34)C(=O)NC2=O)c2ccccc21	-1

---

Details: Ebola virus entry assay, ratio channel
The source made the active and inactive calls.
Possible outcomes: active, inactive

Compound	Group Label
CC(C)Oc1ccc2c(=O)c(-c3ccccc3)coc2c1	inactive
O=C1NC(c2ccccc2)(c2ccccc2)C(=O)N1COP(=O)(O)O	inactive
COc1cc2nc(N3CCN(C(=O)C4COc5ccccc5O4)CC3)nc(N)c2cc1OC (stereo unspecified)	active
CNS(=O)(=O)CCc1ccc2[nH]cc(C3CCN(C)CC3)c2c1	inactive
N=C(N)c1ccc(OCCCCCOc2ccc(C(=N)N)cc2)cc1	inactive
O=C1Nc2ccc(Cl)cc2[C@@](C#CC2CC2)(C(F)(F)F)O1	active
CN(Cc1cnc2nc(N)nc(N)c2n1)c1ccc(C(=O)N[C@@H](CCC(=O)O)C(=O)O)cc1	inactive
CC[N+]1(C)CCCC(OC(=O)C(O)(c2ccccc2)c2ccccc2)C1 (stereo unspecified)	inactive
CC(C)NCC(O)COc1cccc2[nH]ccc12 (stereo unspecified)	inactive
CCCCc1oc2ccc(NS(C)(=O)=O)cc2c1C(=O)c1ccc(OCCCN(CCCC)CCCC)cc1	active
O=C(CCCCCCC(=O)Nc1ccccc1)NO	inactive

---

Target Under Test: Glucagon-like peptide 1 receptor (Homo sapiens)
Assay Explanation: qHTS of GLP-1 Receptor Agonists: LOPAC Validation (AID 624148);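 note: luminescence from a luciferase reporter switched on by cAMP; 0% is about no effect; higher luminescence signal means agonism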
Details: GLP-1R agonist cell assay; series mostly up to 46.1 µM
Records with an inconclusive call do not appear. Active and inactive are the calls of the source. Calls come from the whole dose curve; as a rule, active = well fitted curve in the direction sought with a large enough effect; inconclusive = small, poorly fitted or top-dose-only effect, or another doubt; inactive = no such curve, though single readings can be large or run the other way.

Molecule	outcome
O=C1NCN(c2ccccc2)C12CCN(CC1COc3ccccc3O1)CC2 (configuration not stated)	inactive
O=c1[nH]c2ccccc2n1CCCN1CCC(n2c(=O)[nH]c3cc(Cl)ccc32)CC1	inactive
CC(=O)[C@H]1CC[C@H]2[C@@H]3CC[C@H]4C[C@](C)(O)CC[C@]4(C)[C@H]3CC[C@]12C	inactive
Fc1ccc(C(OCCN2CCN(CCCc3ccccc3)CC2)c2ccc(F)cc2)cc1	inactive
NCC(CC(=O)O)c1ccc(Cl)cc1 (configuration not stated)	inactive
COc1ccc(C(CN(C)C)C2(O)CCCCC2)cc1 (configuration not stated)	inactive
NCC1(CC(=O)O)CCCCC1	inactive

---

Assay Explanation: Quantitative High-Throughput drug screen in 47 multiple myeloma cell lines against the NCATS MIPE library collection: KMS12BM_JCRB cell viability assay (AID 1918971); note: nearly all actives have a fitted effect of over 35% in size
Details: KMS12BM myeloma viability, CellTiter-Glo ATP, 48 h; series mostly up to 45.8 µM
Inconclusive results are not listed. Activity calls are given as the source filed them. The call rests on the fitted dose curve; in most records, active means well fitted cell-killing curve with a large enough effect; inconclusive means small, poorly fitted or top-dose-only effect, or effect the other way; inactive means no such curve, though single readings can be large or run the other way.
Possible outcomes: active, inactive

Compound	Group Label
Cc1cccc(C)c1NC(=O)CN1CCCC1=O	inactive
COc1ccc2c(c1OC)CN1CCc3cc4c(cc3C1C2)OCO4 (centres undefined)	active
CC(O)(CS(=O)(=O)c1ccc(F)cc1)C(=O)Nc1ccc(C#N)c(C(F)(F)F)c1 (centres undefined)	active
CN(C)CCN(C)CCc1ccc(Cl)c(Cl)c1	inactive
C=C(C)[C@H]1Cc2c(ccc3c2O[C@@H]2COc4cc(OC)c(OC)cc4[C@@H]2C3=O)O1	active
C[C@@H]1[C@@H](CC(C[C@H]2O[C@@H]3O[C@]4(C)CC[C@@H]5[C@H](C)CC[C@@H]([C@H]2C)[C@@]35OO4)C[S+](=O)([O-])c2ccc(COC(=O)N(C)C)cc2)O[C@@H]2O[C@]3(C)CC[C@H]4[C@H](C)CC[C@@H]1[C@@]24OO3 (some centres undefined)	active
COC[C@@H](NC(C)=O)C(=O)NCc1ccccc1	inactive
CNCC(O)c1ccc(O)cc1 (centres undefined)	inactive
Cn1c(CCCC(=O)O)nc2cc(N(CCCl)CCCl)ccc21	active

---

Target Under Test: Bile acid receptor (Homo sapiens) (UniProt Q96RI1)
Sequence (Q96RI1 whole entry, looked up): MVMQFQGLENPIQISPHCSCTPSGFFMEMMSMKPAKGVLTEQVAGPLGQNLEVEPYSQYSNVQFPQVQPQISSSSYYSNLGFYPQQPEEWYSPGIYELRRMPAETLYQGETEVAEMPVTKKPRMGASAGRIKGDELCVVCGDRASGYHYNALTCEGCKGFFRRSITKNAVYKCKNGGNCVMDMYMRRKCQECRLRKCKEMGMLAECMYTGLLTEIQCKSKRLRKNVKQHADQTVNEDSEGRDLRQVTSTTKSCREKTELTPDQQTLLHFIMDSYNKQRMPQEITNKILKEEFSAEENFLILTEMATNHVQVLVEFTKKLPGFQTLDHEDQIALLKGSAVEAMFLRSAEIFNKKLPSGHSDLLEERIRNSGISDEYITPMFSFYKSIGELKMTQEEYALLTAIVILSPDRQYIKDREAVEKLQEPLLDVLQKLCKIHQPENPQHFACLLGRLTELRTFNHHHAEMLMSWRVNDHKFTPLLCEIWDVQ
Assay Explanation: qHTS assay for small molecule agonists of farnesoid X receptor signaling (AID 588527);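 note: 0% = vehicle basal and 100% = reference agonist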
Details: HEK293T FXR-UAS-bla, beta-lactamase ratio, 16 h; stronger effect = higher value
Inconclusive results are not listed.
Recorded Endpoint: activation (%)

Compound	Endpoint Unit	Assay Value
CC1(C)NC(=O)N(c2ccc([N+](=O)[O-])c(C(F)(F)F)c2)C1=O	%	0.399
C[C@H]1O[C@@H](O[C@H]2[C@@H](O)C[C@H](O[C@H]3[C@@H](O)C[C@H](O[C@H]4CC[C@@]5(C)[C@H](CC[C@@H]6[C@@H]5CC[C@]5(C)[C@@H](C7=CC(=O)OC7)CC[C@]65O)C4)O[C@@H]3C)O[C@@H]2C)C[C@H](O)[C@@H]1O	%	-2.75
CNCC(O)c1ccc(O)cc1 (stereo not drawn)	%	-1.79
CC1=C(/C=C/C(C)=C/C=C/C(C)=C/C(=O)Nc2ccc(O)cc2)C(C)(C)CCC1	%	-5.41
Cc1ccccc1C(OCCN(C)C)c1ccccc1 (stereo not drawn)	%	-1.23
C=C(C)[C@H]1Cc2c(ccc3c2O[C@@H]2COc4cc(OC)c(OC)cc4[C@@H]2C3=O)O1	%	-1.33
O=c1[nH]cc(F)c(=O)[nH]1	%	-1.24
N[C@@H](Cc1ccc(N(CCCl)CCCl)cc1)C(=O)O	%	0.124
C[C@]12C/C(=C/O)C(=O)C[C@@H]1CC[C@@H]1[C@@H]2CC[C@@]2(C)[C@H]1CC[C@]2(C)O	%	1.58
O=c1oc2ccccc2c(O)c1C(CC(O)c1ccc(-c2ccc(Br)cc2)cc1)c1ccccc1 (stereo not drawn)	%	-8.03
Cc1cc(SCc2sc(-c3ccc(C(F)(F)F)c(F)c3)nc2C)ccc1OCC(=O)O	%	-2.28
CN(C)/N=N/c1nc[nH]c1C(N)=O	%	-3.3
COc1ccc(Cl)cc1C(=O)NCCc1ccc(S(=O)(=O)NC(=O)NC2CCCCC2)cc1	%	0.916
